- System: foxtail, giant (giant foxtail, Setaria faberii)
- Assay Method Text: Test A postemergence, foxtail, giant
- Type: in vivo
- Condition Label: 125 g ai/ha, 0 to 100 scale
- Excerpt: […]
The entries below come with measured Plant response rating, Foxtail, Giant values attached.
Value Kind: Plant response rating, Foxtail, Giant

molecule="Cc1cnn(-c2ncccc2Oc2ncc(Cl)cn2)c1 [Compound 3]" study_target="foxtail, giant (giant foxtail, Setaria faberii)" reported=0
molecule="Cc1cnc(-n2ccc(C(F)(F)F)n2)c(Oc2ncc(Cl)cn2)c1 [Compound 13]" study_target="foxtail, giant (giant foxtail, Setaria faberii)" reported=0
molecule="[O-][n+]1cccc(Oc2ncc(F)cn2)c1-n1cc(Cl)cn1 [Compound 9]" study_target="foxtail, giant (giant foxtail, Setaria faberii)" reported=0
molecule="FC(F)c1cc(-c2ncccc2Oc2ncc(Cl)cn2)no1 [Compound 6]" study_target="foxtail, giant (giant foxtail, Setaria faberii)" reported=40
molecule="Clc1cnc(Oc2cccnc2-n2cc(-c3ccccc3)cn2)nc1 [Compound 4]" study_target="foxtail, giant (giant foxtail, Setaria faberii)" reported=0
molecule="Clc1ccc(-c2cccnc2Oc2ncc(Cl)cn2)nc1 [Compound 12]" study_target="foxtail, giant (giant foxtail, Setaria faberii)" reported=0
molecule="Clc1cnc(Oc2cccnc2-n2cc(Cl)cn2)nc1 [Compound 2]" study_target="foxtail, giant (giant foxtail, Setaria faberii)" reported=0
molecule="[O-][n+]1cccc(Oc2ncc(Cl)cn2)c1-c1cc(C(F)F)on1 [Compound 8]" study_target="foxtail, giant (giant foxtail, Setaria faberii)" reported=10
molecule="Fc1cnc(Oc2cccnc2-c2cc(C(F)F)no2)nc1 [Compound 7]" study_target="foxtail, giant (giant foxtail, Setaria faberii)" reported=0
molecule="FC(F)c1cc(-c2ncccc2Oc2ncc(Cl)cn2)on1 [Compound 5]" study_target="foxtail, giant (giant foxtail, Setaria faberii)" reported=10
molecule="FC(F)(F)c1cc(-c2ncccc2Oc2ncc(Cl)cn2)ccn1 [Compound 14]" study_target="foxtail, giant (giant foxtail, Setaria faberii)" reported=60
molecule="Clc1cnc(Oc2cccnc2-n2cc(Br)cn2)nc1 [Compound 1]" study_target="foxtail, giant (giant foxtail, Setaria faberii)" reported=10
molecule="Cc1ccc(Oc2ncc(Cl)cn2)c(-n2cc(Br)cn2)n1 [Compound 10]" study_target="foxtail, giant (giant foxtail, Setaria faberii)" reported=0
